The reported numbers originate from ChEMBL document CHEMBL1133156.

Listed below: pIC50 values for each entry.
System: P388
experimentalDetails: Compound was tested for cytotoxic activity against P-388D1 mouse lymphoma (ATCC: CCL-46)
Format: functional, cell-based
pIC50 field: float, defined as -log10 of concentration (mol/L).

Known results for compounds:
{"columns": ["compound", "pIC50"],
 "data": [
  ["CC1=C(O)C(=O)C=C2C1=CC(O)[C@H]1[C@@]2(C)CC[C@@]2(C)C3C[C@@H](C)C(=O)[C@@H](O)[C@]3(C)CC[C@]12C (single isomer, unassigned)", 6.00],
  ["COC(=O)[C@]1(C)CC[C@]2(C)CC[C@]3(C)C4CC(=O)c5c(cc(OC(C)=O)c(OC(C)=O)c5C=O)[C@]4(C)CC[C@@]3(C)C2C1 (stereo not given in full)", 6.40],
  ["C[C@@H]1CC2[C@]3(C)CCC4(C)C(=CC(=O)c5c4cc(O)c(O)c5C(=O)O)[C@@]3(C)CC[C@@]2(C)[C@H](O)C1=O (single isomer, unassigned)", 5.28],
  ["COC(=O)[C@]1(C)CC[C@]2(C)CC[C@]3(C)C4CC(=O)c5c(cc(O)c(O)c5C=O)[C@]4(C)CC[C@@]3(C)C2C1 (stereo not given in full)", 6.00]
]}

Attention now shifts to the item below.
The compound identified as COc1c(O)cc2c(c1C(=O)O)C(=O)C=C1C2(C)CC[C@@]2(C)C3C[C@@H](C)C(=O)[C@@H](O)[C@]3(C)CC[C@]12C (single isomer, unassigned) registered its pIC50 at 4.68
